These measurements were taken from patent US20120015925A1.

- Tested on: KKA^y/Ta Jcl male mice
- protocol.text: Obesity and fatty liver model: body weight and liver triglyceride
- Format: in vivo, mouse
- assay.conditions: Table 14-2; 1 mg/kg group, baseline; control group 44.1 ± 0.6
observed.property: BODY WEIGHT (g) BEFORE ADMINISTRATION
Numeric only. Scale: g

Here's what some known entries look like.
CCCCC1(CCCC)CS(=O)(=O)c2ccc(N(C)C)cc2C(c2cccc(NC(=S)Nc3ccc(C[N+]45CCC(c6ccccc6)(CC4)CC5)cc3)c2)N1.[Br-] (racemic) [EXAMPLE 3696] | 43.5
CCCCC1(CCCC)CS(=O)(=O)c2ccc(N(C)C)cc2C(c2cccc(NC(=S)Nc3ccc(C[n+]4ccccc4CCC)cc3)c2)N1.[Br-] (stereo not shown) [EXAMPLE 5408] | 44.0
CCCCC1(CCCC)CS(=O)(=O)c2ccc(N(C)C)cc2C(c2cccc(NC(=S)Nc3ccc(C[n+]4cccc(CCCO)c4)cc3)c2)N1.[Br-] (stereo not shown) [EXAMPLE 3747] | 44.3
CCCCC1(CCCC)CS(=O)(=O)c2ccc(N(C)C)cc2C(c2cccc(NC(=S)Nc3ccc(C[N+](C)(C)Cc4ccccc4)cc3)c2)N1.[Br-] (stereo not shown) [EXAMPLE 3440] | 44.6

Please report the recorded BODY WEIGHT (g) BEFORE ADMINISTRATION for CCCCC1(CCCC)CS(=O)(=O)c2ccc(N(C)C)cc2C(c2cccc(NC(=S)Nc3ccc(C[n+]4ccc(C(C)(C)C)cc4)cc3)c2)N1.[Br-] (stereo not shown) [EXAMPLE 3713] . 44.0

Please report the recorded BODY WEIGHT (g) BEFORE ADMINISTRATION for CCCCC1(CCCC)CS(=O)(=O)c2ccc(N(C)C)cc2C(c2cccc(NC(=S)Nc3ccc(C[n+]4cccc(CCC(=O)OC)c4)cc3)c2)N1.[Br-] (stereo not shown) [EXAMPLE 3752] . 43.8

Please report the recorded BODY WEIGHT (g) BEFORE ADMINISTRATION for C#CC[N+](C)(Cc1ccccc1)Cc1ccc(NC(=S)Nc2cccc(C3NC(CCCC)(CCCC)CS(=O)(=O)c4ccc(N(C)C)cc43)c2)cc1.[Br-] (racemic) [EXAMPLE 3448] . 44.1
